measured.on: Nuclear receptor subfamily 1 group I member 3 (Homo sapiens, UniProt Q14994)
Sequence (Q14994 whole entry): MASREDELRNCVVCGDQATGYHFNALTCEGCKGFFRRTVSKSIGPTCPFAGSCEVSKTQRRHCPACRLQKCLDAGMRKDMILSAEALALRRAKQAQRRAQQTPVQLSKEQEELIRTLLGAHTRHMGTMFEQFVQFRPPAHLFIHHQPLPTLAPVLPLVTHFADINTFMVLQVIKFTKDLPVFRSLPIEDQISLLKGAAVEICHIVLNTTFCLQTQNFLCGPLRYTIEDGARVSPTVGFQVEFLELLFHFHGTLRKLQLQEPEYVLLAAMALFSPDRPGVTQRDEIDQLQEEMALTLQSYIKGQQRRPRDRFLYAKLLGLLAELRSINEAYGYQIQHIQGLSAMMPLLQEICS
assay.notes: Agonist activity at human CAR transfected in human HepG2 cells cotransfected with CYP2B6 incubated for 23 hrs by luciferase reported gene assay
Format: cell-based
measurement.parameters: read-out: EC50
Quick list: pEC50 per entry.
When answering, recall that pEC50 equals minus log10 of the concentration in mol/L, and write that number alone.

The cases that follow already have their pEC50 on record.
# smiles.structure, pEC50
measured = [
    ("C(=N\\OC1Cc2ccccc2C1)/c1c(-c2ccc3ccccc3c2)nc2occn12", 6.01),
    ("Clc1ccc(CO/N=C/c2c(-c3ccc(Br)cc3)nc3sccn23)cc1Cl", 6.32),
    ("COc1ccc(CO/N=C/c2c(-c3ccc4ccccc4c3)nc3occn23)cc1", 5.36),
    ("CC(C)(C)c1ccc(-c2nc3sccn3c2/C=N/OCc2ccc(Cl)c(Cl)c2)cc1", 5.62),
    ("Clc1ccc(-c2nc3occn3c2/C=N/OCc2ccc(Cl)c(Cl)c2)cc1", 6.39),
    ("N#Cc1ccc(-c2nc3sccn3c2/C=N/OCc2ccc(Cl)c(Cl)c2)cc1", 5.47),
    ("COc1ccc(-c2nc3sccn3c2/C=N/OCc2ccc(Cl)c(Cl)c2)cc1", 6.31),
    ("Fc1ccc(-c2nc3sccn3c2/C=N/OCc2ccc(Cl)c(Cl)c2)cc1", 6.17),
    ("CC(C)c1ccc(-c2nc3sccn3c2/C=N/OCc2ccc(Cl)c(Cl)c2)cc1", 6.23),
]

Qu. Which pEC50 value is on record for Clc1ccc(CO/N=C/c2c(-c3ccccc3)nc3sccn23)cc1Cl ?
Ans. 6.24

* * *

measured.on: UniProt:Q14994
Sequence (Q14994 whole entry): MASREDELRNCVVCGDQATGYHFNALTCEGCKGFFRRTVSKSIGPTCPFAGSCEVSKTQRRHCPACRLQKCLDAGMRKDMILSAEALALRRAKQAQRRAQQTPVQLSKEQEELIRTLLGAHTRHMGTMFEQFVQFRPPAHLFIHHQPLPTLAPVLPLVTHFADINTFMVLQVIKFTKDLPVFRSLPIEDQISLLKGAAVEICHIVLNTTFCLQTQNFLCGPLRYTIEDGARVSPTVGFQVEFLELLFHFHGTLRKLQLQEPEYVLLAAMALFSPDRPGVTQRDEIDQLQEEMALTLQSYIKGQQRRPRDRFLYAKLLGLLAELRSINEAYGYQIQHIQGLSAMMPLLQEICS
assay.notes: Agonist activity at human CAR transfected in human HepG2 cells cotransfected with CYP2B6 incubated for 23 hrs by luciferase reported gene assay
Type: cell-based
measurement.parameters: read-out: EC50
reported.endpoint: pEC50
When answering, recall that pEC50 equals minus log10 of the concentration in mol/L, and write that number alone.

The cases that follow already have their pEC50 on record.
# smiles.structure, pEC50
data = [
    ("CCc1nc2sccn2c1/C=N/OCc1ccc(Cl)c(Cl)c1", 5.59),
    ("Clc1ccc(CO/N=C/c2c(-c3ccc4ccccc4c3)nc3occn23)c(Cl)c1", 5.82),
    ("Cc1ccc(-c2nc3sccn3c2/C=N/OCc2ccc(Cl)c(Cl)c2)cc1", 6.31),
]

Next compound, please.
Qu. Which pEC50 value is on record for FC(F)(F)c1ccc(-c2nc3sccn3c2/C=N/OCc2ccc(Cl)c(Cl)c2)cc1 ?
Ans. 6.06

* * *

measured.on: Nuclear receptor subfamily 1 group I member 2 (Homo sapiens, UniProt O75469)
Sequence (O75469 whole entry): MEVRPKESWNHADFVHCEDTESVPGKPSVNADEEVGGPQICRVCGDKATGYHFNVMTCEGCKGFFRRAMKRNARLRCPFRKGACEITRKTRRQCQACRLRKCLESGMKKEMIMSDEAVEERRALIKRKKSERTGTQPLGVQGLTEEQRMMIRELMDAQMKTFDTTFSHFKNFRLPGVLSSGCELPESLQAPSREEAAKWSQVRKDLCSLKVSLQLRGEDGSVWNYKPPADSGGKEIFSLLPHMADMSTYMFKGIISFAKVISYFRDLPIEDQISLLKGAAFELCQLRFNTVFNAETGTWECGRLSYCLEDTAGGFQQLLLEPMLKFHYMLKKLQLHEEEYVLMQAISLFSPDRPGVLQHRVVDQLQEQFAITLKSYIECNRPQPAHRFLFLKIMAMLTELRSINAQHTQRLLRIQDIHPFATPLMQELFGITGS
assay.notes: Agonist activity at human PXR transfected in human HepG2 cells cotransfected with CYP3A4 incubated for 23 hrs by luciferase reporter gene assay
Quick list: pEC50 per entry.
When answering, recall that pEC50 equals minus log10 of the concentration in mol/L, and write that number alone.

# smiles.structure, pEC50
rows = [
    ("C(=N\\OCc1ccccc1)/c1c(-c2ccc3ccccc3c2)nc2occn12", 5.14),
]

Qu. Lab note: need pEC50 with Nuclear receptor subfamily 1 group I member 2 (Homo sapiens, UniProt O75469) for entry Clc1ccc(CO/N=C/c2c(-c3ccc(-c4ccccc4)cc3)nc3sccn23)cc1Cl , please look it up.
Ans. 4.24

Qu. Lab note: need pEC50 with Nuclear receptor subfamily 1 group I member 2 (Homo sapiens, UniProt O75469) for entry Clc1ccc(CO/N=C/c2c(-c3ccc4ccccc4c3)nc3occn23)cc1Cl , please look it up.
Ans. 5.23

* * *

measured.on: Nuclear receptor subfamily 1 group I member 3 (Homo sapiens)
assay.notes: Ratio of Emax to EC50 for agonist activity at human CAR transfected in human HepG2 cells cotransfected with CYP2B6 by luciferase reporter gene assay
Type: cell-based
reported.endpoint: Ratio
Just the number.

The cases that follow already have their Ratio on record.
# smiles.structure, val
measured = [
    ("Fc1ccc(-c2nc3sccn3c2/C=N/OCc2ccc(Cl)c(Cl)c2)cc1", 3.9),
    ("Fc1c(F)c(F)c(CO/N=C/c2c(-c3ccc4ccccc4c3)nc3occn23)c(F)c1F", 1.8),
    ("CC(C)c1ccc(-c2nc3sccn3c2/C=N/OCc2ccc(Cl)c(Cl)c2)cc1", 5.1),
    ("Clc1ccc(CO/N=C/c2c(-c3ccc4ccccc4c3)nc3occn23)cc1", 4.2),
    ("Clc1cccc(-c2nc3sccn3c2/C=N/OCc2ccc(Cl)c(Cl)c2)c1", 2.1),
    ("Cc1ccc(-c2nc3sccn3c2/C=N/OCc2ccc(Cl)c(Cl)c2)cc1", 5.5),
]

Qu. Which Ratio value is on record for Clc1ccccc1CO/N=C/c1c(-c2ccc3ccccc3c2)nc2occn12 ?
Ans. 3.5

Qu. Which Ratio value is on record for Clc1ccc(CO/N=C/c2c(-c3ccc4ccccc4c3)nc3occn23)c(Cl)c1 ?
Ans. 2.3

Qu. Which Ratio value is on record for Clc1ccc(CO/N=C/c2c(-c3ccc4ccccc4c3)nc3sccn23)cc1Cl ?
Ans. 6.1

Source: ChEMBL document CHEMBL4396920
